B1: glmS ribozyme (parent)
chain: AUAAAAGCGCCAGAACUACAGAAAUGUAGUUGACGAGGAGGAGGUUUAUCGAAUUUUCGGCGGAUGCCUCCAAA

Variants of: B1
method: self-cleavage kobs at 640 uM GlcN6P; higher = faster cleavage; RNA array
reported conditions: with glucosamine-6-phosphate
Variants at the floor of the assay were thinned out.
endpoint: self-cleavage kobs at 640 uM GlcN6P (s⁻¹)
API: value field is a number in s⁻¹; no unit string.

Examples with their reported self-cleavage kobs at 640 uM GlcN6P follow.
// query Could you share which self-cleavage kobs at 640 uM GlcN6P value was measured for AUAAAAGCGCCAGAAAUACAGAAAUGUAGUUGACGAGGAGGAGGGUUAUCGAAUUUUCGGCGGAUGCCUCCAAA [C16A U45G] ?
// result 6.15e-05

// query Could you share which self-cleavage kobs at 640 uM GlcN6P value was measured for AUAAAAGCGCCAGAUCUACAGAAAUGUAGUUUACGAGGAGGAGGUUUAUCGAAUUUUCGGCGGAUGCCUCCAAA [A15U G32U] ?
// result 0.000103

// query Could you share which self-cleavage kobs at 640 uM GlcN6P value was measured for AUAAAAGCGCCAGAAUUACAGAAAUGUAGUUGACGAGGAGGAGGUUGAUCGAAUUUUCGGCGGAUGCCUCCAAA [C16U U47G] ?
// result 0.00106

// query Could you share which self-cleavage kobs at 640 uM GlcN6P value was measured for AUAAAAGCGCCAGAACUACAGAAAUGUAGUUGACGAGGCGGAGGUUUAUCGAAUUUUCGGCGGAUGCCCCCAAA [A39C U69C] ?
// result 6.94e-05

// query Could you share which self-cleavage kobs at 640 uM GlcN6P value was measured for AUAAAAGCGCCAGAACUACAGAAAUGUAGUUGACGAGGGGGAGCUUUAUCGAAUUUUCGGCGGAUGCCUCCAAA [A39G G44C] ?
// result 0.000101

Continuing:
// query Could you share which self-cleavage kobs at 640 uM GlcN6P value was measured for AUAAAAGCGCCAGAACUACAGAAAUGUAGUUGACGAGGAGGAGGUUUAUCGGAUUUUCGGCGGAUGCCUGCAAA [A52G C70G] ?
// result 5.76e-05

// query Could you share which self-cleavage kobs at 640 uM GlcN6P value was measured for AUAAAUGCGCCAGAGCUACAGAAAUGUAGCUGACGAGGAGGAGGUUUAUCGAAUUUUCGGCGGAUGCCUCCAAA [A6U A15G U30C] ?
// result 5.44e-05

// query Could you share which self-cleavage kobs at 640 uM GlcN6P value was measured for AUAAAAGCGCCAGAACUACAGAAAUGUAGUUGACGAGGAGGAGGUUUAUCGAAUUUUCGGCGGAUAGCUCCAAA [G66A C67G] ?
// result 0.000703

// query Could you share which self-cleavage kobs at 640 uM GlcN6P value was measured for AUAAAAGCGCCAGAACUACAGAAAUGUAGUUGACGAGGGGGAGGUUUAUCGAAUUUUCGGCGGAUGCCUUUAAA [A39G C70U C71U] ?
// result 0.000383

// query Could you share which self-cleavage kobs at 640 uM GlcN6P value was measured for AUAAAAGCGCCAGAACUACAGAAAUGUAGUUGACGAGUAGGAGGUUUAUCGAAUUUUCGGCGGAUGCCUGCAAA [G38U C70G] ?
// result 0.000298

// query Could you share which self-cleavage kobs at 640 uM GlcN6P value was measured for AUAAAAGCGCCAGAACUACAGAAAUGUAGUUGACGAGGGGGAGGUUUAUCGAAUUUUCGGCGGCUGCCUCCAAA [A39G A64C] ?
// result 5.91e-05
